# TARGET OF ASSAY: GRASP, Q7Z6J2
# Sequence (Q7Z6J2 96-193): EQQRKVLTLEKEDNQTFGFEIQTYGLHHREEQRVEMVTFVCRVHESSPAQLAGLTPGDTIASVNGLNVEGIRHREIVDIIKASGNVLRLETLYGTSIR
# TEST: holdup assay
# Set-up: key: below the threshold = too weak to quantify, mostly under pKd 3.1 to 4
# TEST CONTEXT: plain residues with an end cap or a label only (N-terminal biotin on a linker: ado-ado)
OBSERVED PROPERTY: pKd
Output: the number by itself.

Field: example entries. Status: answers known.
BINDER	READING
RDYTQSSSSL [GRM5, P41594]	4.33
HDDYFYHDEL [RCN2, Q14257]	5.01

Next item in the queue.
Q) So what's the measured pKd for this one? IKLETKKTKL [SLC15A2, Q16348]
A) 4.42
